# protocol summary: NCI Yeast Anticancer Drug Screen. Data for the bub3 strain (AID 167)
# assay context: S. cerevisiae bub3 mutant strain, at 50.0 µM
Compounds without any hit were thinned out: in the full panel of roughly 79,000, 15% have a hit. Calls of active or inactive are those of the source. Rule as the data show it: active = growth inhibition above about 70%; inactive = the rest.
Outcome codes: active, inactive

{"compound": "O=C(Nc1ccccc1SC(=O)OCc1ccccc1)OCc1ccccc1", "label value": "inactive"}
{"compound": "CCCC(=O)OC(CCC1CCCO1)CCC1CCCO1 (centres undefined)", "label value": "inactive"}
{"compound": "O=C(O)CC(CC(=O)O)c1ccc2c(c1)OCO2", "label value": "inactive"}
{"compound": "COCCCn1c(-c2ccc(Cl)cc2)nn2c(=O)c3ccccc3nc2c1=O", "label value": "inactive"}
{"compound": "COc1ccc(OC)c(C(c2cc(OC)ccc2OC)C(Cl)(Cl)Cl)c1", "label value": "inactive"}
{"compound": "Cc1ccc([N+](=O)[O-])cc1N1CCNC1=O", "label value": "inactive"}
{"compound": "c1ccc(-c2ccccc2-c2ccccc2-c2ccccc2)cc1", "label value": "inactive"}
{"compound": "O=C1/C=C2/C=CC=CN2C(=O)/C=C2/C=CC=CN12", "label value": "inactive"}
{"compound": "[N-]=[N+]=NC(c1ccccc1)S(=O)c1ccccc1 (centres undefined)", "label value": "active"}
{"compound": "COc1ccc(C(=O)C(C(=O)C(=O)Nc2ccc(Cl)c(Cl)c2)c2ccc(OC)cc2)cc1 (centres undefined)", "label value": "inactive"}
{"compound": "NC(CC(=O)O)c1ccc(Cl)cc1 (centres undefined)", "label value": "inactive"}
{"compound": "O=C(O)c1c(Br)c(Br)c(Br)c(Br)c1C(=O)Nc1cc([N+](=O)[O-])ccc1O", "label value": "inactive"}
{"compound": "CCOC(=O)NC1c2ccccc2Oc2ccccc21", "label value": "inactive"}
{"compound": "O=C1Nc2cc([N+](=O)[O-])c(Br)cc2C1=O", "label value": "inactive"}
{"compound": "Cc1ccc2c(c1)C(C)(C)CCC2", "label value": "inactive"}
{"compound": "C=C1C(=O)[C@@]23CC1C(O)[C@@H](OC(C)=O)[C@@H]2C1(C)C(OC(C)=O)C[C@@H](OC(C)=O)C(C)(C)[C@@H]1C[C@H]3OC(C)=O (some centres undefined)", "label value": "inactive"}
{"compound": "CC(=O)CCc1ccccc1", "label value": "inactive"}
{"compound": "O=C(O)c1ccc2c(c1C(=O)O)C(=O)OC2(c1ccc(O)cc1)c1ccc(O)cc1", "label value": "inactive"}
{"compound": "COc1ccc2nc3cc(Cl)ccc3c(C=O)c2c1", "label value": "inactive"}
{"compound": "C[C@@H](CO)OCOCc1ccccc1", "label value": "inactive"}
{"compound": "CCOC(CN1CCCCC1)OCC", "label value": "inactive"}
{"compound": "COc1cc([N+](=O)[O-])cc(C=O)c1O", "label value": "inactive"}
{"compound": "C=CSC(=S)Sc1ccccc1", "label value": "inactive"}
{"compound": "COC1OC(CCl)C(Cl)C(Cl)C1O (centres undefined)", "label value": "inactive"}
{"compound": "O=S(=O)(N/N=C/c1ccc(Cl)c(Cl)c1)c1ccccc1", "label value": "inactive"}
{"compound": "CCCC(NC(=O)CN)C(=O)O (centres undefined)", "label value": "inactive"}
{"compound": "CCN=c1c([N+](=O)[O-])c(NC(=O)c2ccccc2)sn1CC", "label value": "inactive"}
{"compound": "COc1cc2c(cc1C(C)c1ccc(OC(C)C)cc1)OCO2 (centres undefined)", "label value": "inactive"}
{"compound": "CCCCC(CC)(CO)CCC (centres undefined)", "label value": "inactive"}
{"compound": "NNc1ncnc2c(C3OC(CO)C(O)C3O)[nH]nc12 (centres undefined)", "label value": "inactive"}
{"compound": "Cc1cccc(O)c1O", "label value": "inactive"}
{"compound": "Cc1ccc(C(=O)CCC(=O)OCC(=O)c2ccc(-c3ccccc3)cc2)cc1", "label value": "inactive"}
{"compound": "O=S(=O)([O-])c1ccc(N=Cc2ccccc2[O-])cc1.O=S(=O)([O-])c1ccc(N=Cc2ccccc2[O-])cc1.[Co+2]", "label value": "inactive"}
{"compound": "CCCOC(=O)O[C@H]1CC[C@@]2(C)C(=CC[C@H]3[C@@H]4CC[C@H]([C@H](C)CCCC(C)C)[C@@]4(C)CC[C@@H]32)C1", "label value": "inactive"}
{"compound": "CCOC(=O)C(=CN1C/C(=C/C(C)=C/c2ccccc2)SC1=S)C(=O)OCC", "label value": "inactive"}
{"compound": "O=C(Nc1ccccc1C(=O)N/N=C/c1ccccc1O)c1ccccc1Cl", "label value": "inactive"}
{"compound": "CN(C)Cc1ccccc1COC(=O)/C=C/c1ccccc1", "label value": "inactive"}
{"compound": "COc1cc([N+](=O)[O-])ccc1NC(=O)Nc1ccc(Cl)cc1[N+](=O)[O-]", "label value": "inactive"}
{"compound": "CCCCOC(=O)Nc1ccccc1OCC", "label value": "inactive"}

Data provenance is PubChem BioAssay (NCI).
